The values you see were collected from patent EP4471048A1.

- measured_on: T1, Nluc-IL23R fusion protein (human, UniProt Q5VWK5 22-629)
- T1 construct: range 22-629; Stably expressed in HEK293 cells; also called hIL-23R; human IL-23R; not shown: Nanoluc protein (N1371, Promega) at the N-terminus, after a secretion signal
- T1 sequence (looked up): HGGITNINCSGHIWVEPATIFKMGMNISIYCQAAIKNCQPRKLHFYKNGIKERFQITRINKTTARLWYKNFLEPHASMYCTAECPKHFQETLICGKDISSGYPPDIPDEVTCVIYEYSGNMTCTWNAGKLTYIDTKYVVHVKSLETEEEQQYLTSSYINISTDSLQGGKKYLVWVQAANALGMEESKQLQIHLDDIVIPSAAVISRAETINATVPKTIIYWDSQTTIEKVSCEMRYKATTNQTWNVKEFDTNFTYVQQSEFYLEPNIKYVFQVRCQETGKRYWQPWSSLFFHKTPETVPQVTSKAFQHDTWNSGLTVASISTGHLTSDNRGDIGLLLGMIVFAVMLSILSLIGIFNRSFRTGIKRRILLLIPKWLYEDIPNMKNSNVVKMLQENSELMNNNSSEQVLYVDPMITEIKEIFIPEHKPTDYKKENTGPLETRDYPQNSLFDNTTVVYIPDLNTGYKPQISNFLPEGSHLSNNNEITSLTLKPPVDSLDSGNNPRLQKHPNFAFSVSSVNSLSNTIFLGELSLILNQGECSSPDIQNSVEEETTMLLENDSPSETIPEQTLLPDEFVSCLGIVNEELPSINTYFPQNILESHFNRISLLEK
- procedure_text: BRET competition vs TAMRA-labelled peptide, Nluc-IL23R membranes
*1 amine or outer side, *2 acyl side, *3 side chain or, on linkers, in order; H or OH if unused. Bridges are numbered along the chain shown (N, C = ends). Primed or numbered codes have the meaning given here. Where no end group is shown, it is not given here. [ ]: non-standard residue; d: D form. K(G) = Lys(Gly): lysine with a glycine on the side-chain amine, (2S)-2-amino-6-[(2-aminoacetyl)amino]hexanoic acid, O=C(CN[*:3])NCCCC[C@H](N[*:1])C(=O)[*:2]; 4‑Aminomethyl‑phenylacetyl = 4-aminomethyl-phenylacetyl unit, its amine closes the lactam, O=C(Cc1ccc(CN[*:1])cc1)[*:2]; 1,3‑dibromopropan‑2‑one″ = linker forming 1,3-dithio-propan-2-one bridge -SCH2C(=O)CH2S- between two Cys; (N3)‑K = lysine with the alpha-amine converted to an azide, [N-]=[N+]=N[C@@H](CCCCN[*:3])C(=O)[*:2]; 2Nal = N[C@@H](Cc1ccc2ccccc2c1)C(=O)O; AEF = NCCOc1ccc(C[C@H](N)C(=O)O)cc1; 3Pal = N[C@@H](Cc1cccnc1)C(=O)O; αMeL = CC(C)C[C@](C)(N)C(=O)O; Pra = C#CC[C@H](N)C(=O)O; Dab = NCC[C@H](N)C(=O)O
measure: % displacement
Field note: include the unit after the figure.

[
  {
    "binder": "KTVWQE[AEF][2Nal][Dab]E[Dab][3Pal] (lactam 1-10, 9-C; lactam (positions not given here); not fully specified (bridges); printed as K(1c)(6c)^{†}TVWQE(6c)[Y(2-aminoethoxy)][2-Nal][Dab](7c)E(1c)[Dab][3-(3-Pyridyl)-Ala](7c)^{‡}) [Compound 76]",
    "% displacement": "92%"
  },
  {
    "binder": "[4‑Aminomethyl‑phenylacetyl]SEWQ[Dab][AEF][2Nal][αMeL]E[Dab][3Pal]-NH2 (lactam N-10; bridge 3-6; also: (2c) bridge type not defined) [Ref 122]",
    "% displacement": "97%"
  },
  {
    "binder": "[4‑Aminomethyl‑phenylacetyl]SCWQC[AEF][2Nal][αMeL]E[Dab][3Pal]-NH2 (lactam N-10; linker 3-6 via 1,3‑dibromopropan‑2‑one″) [Ref 120]",
    "% displacement": "94%"
  },
  {
    "binder": "[(N3)‑K]TWQ[Pra][AEF][2Nal][αMeL]E[Dab][3Pal]-NHMe (lactam 1-9; triazole (positions not given here); not fully specified (bridges); printed as [(N₃)-K](1c)(6g)^{†}TWQ[Pra](6g)[Y(2-aminoethoxy)][2-Nal][2-Me-Leu]E(1c)[Dab][3-(3-Pyridyl)-Ala]-[NHMe]) [Compound 41]",
    "% displacement": "98%"
  },
  {
    "binder": "KIVWQE[AEF][2Nal][αMeL]E[Dab][3Pal]-NHMe (lactam 1-10, N-6; SMILES CC[C@H](C)[C@@H]1NC(=O)[C@@H]2CCCCNC(=O)CC[C@@H](C(=O)N[C@@H](CCN)C(=O)N[C@@H](Cc3cccnc3)C(=O)NC)NC(=O)[C@](C)(CC(C)C)NC(=O)[C@H](Cc3ccc4ccccc4c3)NC(=O)[C@H](Cc3ccc(OCCN)cc3)NC(=O)[C@H](CCC(=O)N2)NC(=O)[C@H](CCC(N)=O)NC(=O)[C@H](Cc2c[nH]c3ccccc23)NC(=O)[C@H](C(C)C)NC1=O) [Compound 60]",
    "% displacement": "95%"
  }
]

Read the next record carefully.
Lookup: State its % displacement: [K(G)]WQE[AEF][2Nal][αMeL]E[Dab][3Pal]-NHMe (lactam 1-8, N-4; SMILES CNC(=O)[C@H](Cc1cccnc1)NC(=O)[C@H](CCN)NC(=O)[C@@H]1CCC(=O)NCC(=O)NCCCC[C@@H]2NC(=O)CC[C@H](NC(=O)[C@H](CCC(N)=O)NC(=O)[C@H](Cc3c[nH]c4ccccc34)NC2=O)C(=O)N[C@@H](Cc2ccc(OCCN)cc2)C(=O)N[C@@H](Cc2ccc3ccccc3c2)C(=O)N[C@@](C)(CC(C)C)C(=O)N1) [Compound 46]
Found: 104%
